TEST_TARGET: GRK2 (Homo sapiens, UniProt P25098)
Sequence (P25098 whole entry): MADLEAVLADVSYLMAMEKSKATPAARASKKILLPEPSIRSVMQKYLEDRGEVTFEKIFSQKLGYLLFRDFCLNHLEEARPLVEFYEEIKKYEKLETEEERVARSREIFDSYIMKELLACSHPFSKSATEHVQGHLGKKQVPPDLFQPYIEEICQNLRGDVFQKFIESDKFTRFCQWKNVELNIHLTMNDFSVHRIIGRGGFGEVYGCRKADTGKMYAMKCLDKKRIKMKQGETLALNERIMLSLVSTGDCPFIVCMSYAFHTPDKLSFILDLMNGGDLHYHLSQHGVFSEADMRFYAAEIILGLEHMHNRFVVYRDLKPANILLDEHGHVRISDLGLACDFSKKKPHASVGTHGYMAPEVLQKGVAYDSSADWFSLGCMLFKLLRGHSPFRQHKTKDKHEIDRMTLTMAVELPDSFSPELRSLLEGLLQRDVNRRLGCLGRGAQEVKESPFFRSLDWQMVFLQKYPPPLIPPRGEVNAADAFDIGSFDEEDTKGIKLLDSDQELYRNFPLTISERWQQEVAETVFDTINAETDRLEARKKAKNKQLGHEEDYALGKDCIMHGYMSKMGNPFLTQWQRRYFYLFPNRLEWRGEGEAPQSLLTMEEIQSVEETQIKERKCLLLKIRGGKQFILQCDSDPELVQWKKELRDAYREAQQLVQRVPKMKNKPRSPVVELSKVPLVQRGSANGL
RUN_DESCRIPTION: GRK2 Degradation Assay and Western Blot in PAXF1657 cells
Format: cell-based
Parameters: endogenous in cells; host or cells: PAXF1657
MEASUREMENT_PARAMETERS: Conc 3 uM; read-out: Degradation Assay - 3 point: Degradation (%)
Counter-ions that a name gives are not always drawn.
OBSERVATION_TYPE: inhibition at 3 µM (%)
State just the number; it will be interpreted in %.

Q: Please tell me: inhibition at 3 µM of C[C@@H](NC(=O)c1cccc(NCc2nnc(-c3ccncn3)n2C)c1)c1ccc(OCCCCCCOCCOCCOCCCCCC(=O)Nc2cccc3c2CN(C2CCC(=O)NC2=O)C3=O)cc1 (some centres unmarked) , system GRK2 (Homo sapiens, UniProt P25098)?
Result: 83.1

Q: GRK2 (Homo sapiens, UniProt P25098) / inhibition at 3 µM / C[C@@H](NC(=O)c1cccc(NCc2nnc(-c3ccncn3)n2C)c1)c1cccc(OCCCCCCOCCN2CCN(c3cc4c(cc3F)C(=O)N(C3CCC(=O)NC3=O)C4=O)CC2)c1 (some centres unmarked) : value?
Result: 86.7

Q: What measured inhibition at 3 µM is associated with C[C@@H](NC(=O)c1cccc(NCc2nnc(-c3ccncn3)n2C)c1)c1cccc(OCCCCCCOCCOCCOCCCC(=O)Nc2cccc3c2CN(C2CCC(=O)NC2=O)C3=O)c1 (some centres unmarked) on GRK2 (Homo sapiens, UniProt P25098)?
Result: 89.6

Q: Form field: inhibition at 3 µM recorded for C[C@@H](NC(=O)c1cccc(NCc2nnc(-c3ccncn3)n2C)c1)c1cccc(C(=O)N2CCC(CCN3CCN(c4ccc5c(c4)CN(C4CCC(=O)NC4=O)C5=O)CC3)CC2)c1 (some centres unmarked) with GRK2 (Homo sapiens, UniProt P25098) (enter value)
Result: 89.6

Q: Lab note: need inhibition at 3 µM with GRK2 (Homo sapiens, UniProt P25098) for entry C[C@H](NC(=O)c1cccc(NCc2nnc(-c3ccncn3)n2C)c1)c1ccc(OCCCCCCOCCOCCOCCCCCC(=O)Nc2cccc3c2CN(C2CCC(=O)NC2=O)C3=O)cc1 (some centres unmarked) , please look it up.
Result: 38

Q: Reported inhibition at 3 µM for GRK2 (Homo sapiens, UniProt P25098), given C[C@@H](NC(=O)c1cccc(NCc2nnc(-c3ccncn3)n2C)c1)c1cccc(OCCCCN2CCN(c3ccc4c(c3)CN(C3CCC(=O)NC3=O)C4=O)CC2)c1 (some centres unmarked) ?
Result: 70.6

Q: Field: inhibition at 3 µM (GRK2 (Homo sapiens, UniProt P25098)). Entry: C[C@@H](NC(=O)c1cccc(NCc2nnc(-c3ccncn3)n2C)c1)c1cccc(OCCCCCn2cc(CCCCC(=O)Nc3cccc4c3CN(C3CCC(=O)NC3=O)C4=O)nn2)c1 (some centres unmarked)
Result: 42.6

Q: Give recorded inhibition at 3 µM with GRK2 (Homo sapiens, UniProt P25098) for the following molecule: Cc1ncsc1-c1ccc(CNC(=O)[C@@H]2C[C@@H](O)CN2C(=O)[C@@H](NC(=O)CCCCCOCCOCCOCCCCCCOc2cccc([C@H](C)NC(=O)c3cccc(NCc4nnc(-c5ccncn5)n4C)c3)c2)C(C)(C)C)cc1
Result: 18

Q: Give recorded inhibition at 3 µM with GRK2 (Homo sapiens, UniProt P25098) for the following molecule: C[C@H](NC(=O)c1cccc(NCc2nnc(-c3ccncn3)n2C)c1)c1cccc(OCCCCCOCCCOCC(=O)Nc2cccc3c2CN(C2CCC(=O)NC2=O)C3=O)c1 (some centres unmarked)
Result: 19.2

Q: Observed inhibition at 3 µM on GRK2 (Homo sapiens, UniProt P25098) for C[C@@H](NC(=O)c1cccc(NCc2nnc(-c3ccncn3)n2C)c1)c1cccc(OCCCCCCOCCOCCN2CCN(c3cc4c(cc3F)C(=O)N(C3CCC(=O)NC3=O)C4=O)CC2)c1 (some centres unmarked) , please.
Result: 93

Q: Can you look up inhibition at 3 µM on GRK2 (Homo sapiens, UniProt P25098) for C[C@@H](NC(=O)c1cccc(NCc2nnc(-c3ccncn3)n2C)c1)c1ccc(OCCCCN2CCN(c3ccc4c(c3)CN(C3CCC(=O)NC3=O)C4=O)CC2)cc1 (some centres unmarked) [Compound D175, hydrochloride] ?
Result: 82.8
